assay_system: human CB1 (hCB1) (Homo sapiens, UniProt P21554)
Construct: (cDNA clone) CNR01L000
Sequence (P21554 whole entry): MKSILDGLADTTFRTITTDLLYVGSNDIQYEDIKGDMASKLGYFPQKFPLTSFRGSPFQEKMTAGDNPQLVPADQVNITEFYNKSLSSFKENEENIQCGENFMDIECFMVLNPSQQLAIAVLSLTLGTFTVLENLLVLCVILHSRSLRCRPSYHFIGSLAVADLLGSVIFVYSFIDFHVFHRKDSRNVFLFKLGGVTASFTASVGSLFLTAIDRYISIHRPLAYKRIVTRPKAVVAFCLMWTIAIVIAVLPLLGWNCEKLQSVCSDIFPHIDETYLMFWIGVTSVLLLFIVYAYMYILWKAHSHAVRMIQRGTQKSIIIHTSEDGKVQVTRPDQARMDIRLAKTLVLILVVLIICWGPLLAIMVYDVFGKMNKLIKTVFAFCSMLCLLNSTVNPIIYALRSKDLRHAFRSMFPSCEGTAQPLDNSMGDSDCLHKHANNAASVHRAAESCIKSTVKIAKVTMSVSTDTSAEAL
test_name: 35S GTPγS binding assay, hCB1 agonist
Type: biochemical
applied_conditions: GTPγS agonist, HEK-293 membranes; read-out: hCB1 EC50 (GTPyS ag)
pEC50: −log10 of the molar value.
The following molecules are shown together with reported pEC50 values.

Prompt line: Answer with the recorded pEC50 for the molecule listed here: COc1ccc(C(=O)c2cc3cc(C)n(CCCNS(=O)(=O)C(F)(F)F)c3s2)cc1 [Compound 154]
Response line: < 5.00

###

assay_system: recombinant human cannabinoid receptor CB1 (Homo sapiens)
Construct: (cDNA clone) CNR01L000
test_name: Cannabinoid receptor radioligand binding assay, [3H]-CP 55,940 displacement, hCB1
pIC50: −log10 of the molar value.
List of pIC50 values.

Consider the reported pIC50 for these molecules:
>>> print(df.to_string())
                                   molecule  metric_name   assay_value
0  COc1ccc(C(=O)c2cc3cc(C)n(CCNC4CCOC4)c3s2)cn1 (stereo not drawn)        pIC50  5.00 to 6.00
1   CCCn1c(C)cc2cc(C(=O)c3cccc(Cl)c3Cl)sc21        pIC50  5.00 to 6.00
2  COc1ccc(C(=O)c2cc3cc(C)n(CCN4CC5CC4CO5)c3s2)cn1 (stereo not drawn)        pIC50  6.00 to 7.00
3  COc1ccc(C(=O)c2cc3cc(C)n(CCCNS(C)(=O)=O)c3s2)c(C)c1        pIC50  5.00 to 6.00
4  Cc1cc2cc(Cc3cccc(Cl)c3Cl)sc2n1CCN1CCOCC1        pIC50  5.00 to 6.00

Prompt line: Let me know recorded pIC50 for COc1ccc(C(=O)c2cc3cc(C)n(S(=O)(=O)CC4CCOCC4)c3s2)cc1 , thanks.
Response line: > 7.00

Prompt line: Return reported pIC50. Input molecule: CCN(CC)CCn1c(C)cc2cc(C(=O)c3ccc(OC)nc3)sc21
Response line: < 5.00

Prompt line: In one line, give reported pIC50 of the entry COc1ccc(C(=O)c2cc3cc(C)n(CCN4CCOCC4)c3s2)c(C(F)(F)F)c1 .
Response line: 5.00 to 6.00

Prompt line: # return recorded pIC50 for entry Cc1cc2cc(C(=O)c3cccc(Cl)c3Cl)sc2n1CCC1CCOCC1
Response line: 6.00 to 7.00

Prompt line: Give the value of pIC50 reported for the following: COc1ccc(C(=O)c2cc3cc(C)n(CCNCC4CCOCC4)c3s2)cn1
Response line: < 5.00

Prompt line: Fill in pIC50 for record COc1ccc(C(=O)c2cc3cc(C)n(CCC(C)(C)O)c3s2)cc1
Response line: 5.00 to 6.00

###

Overview of reported EC50 across a group of compounds:
assay_system: human CB2 (hCB2) (Homo sapiens)
Construct: (cDNA clone) CNR0200000
Sequence (P34972 whole entry): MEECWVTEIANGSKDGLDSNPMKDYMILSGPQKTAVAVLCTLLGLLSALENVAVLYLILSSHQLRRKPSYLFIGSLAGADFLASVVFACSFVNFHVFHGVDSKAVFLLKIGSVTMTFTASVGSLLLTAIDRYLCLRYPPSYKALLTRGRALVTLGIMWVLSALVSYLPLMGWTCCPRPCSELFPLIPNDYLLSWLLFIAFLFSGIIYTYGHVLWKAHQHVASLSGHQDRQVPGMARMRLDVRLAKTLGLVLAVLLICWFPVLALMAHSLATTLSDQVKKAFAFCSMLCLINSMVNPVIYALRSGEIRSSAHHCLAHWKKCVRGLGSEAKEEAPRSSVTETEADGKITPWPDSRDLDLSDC
test_name: 35S GTPγS binding assay, hCB2 agonist
Format: biochemical
applied_conditions: GTPγS agonist, HEK-293 membranes; read-out: hCB2 EC50 (GTPyS ag)

In [3]: df
Out[3]:
                                   compound  metric_name  assay_value
0  COc1ccc(C(=O)c2cc3cc(C)n(CCCCl)c3s2)c(Cl)c1 [Compound 85]         EC50     < 100 nM

Prompt line: Retrieve EC50 measured for COc1ccc(C(=O)c2cc3cc(C)n(CCN4CCOCC4)c3s2)c(C(F)(F)F)c1 [Compound 119] and print it.
Response line: < 100 nM

Prompt line: Give the value of EC50 reported for the following: Cc1cc2cc(C(=O)c3cccc(Cl)c3Cl)sc2n1CCCNS(C)(=O)=O [Compound 37]
Response line: < 100 nM

Prompt line: Determine from records and report EC50 for COc1ccc(C(=O)c2cc3cc(C)n(Cc4ccccc4)c3s2)cc1 [Compound 84]
Response line: 100 to 1000 nM

Prompt line: // Input: CCS(=O)(=O)n1c(C)cc2cc(C(=O)c3ccccc3Cl)sc21 [Compound 42] . Output its EC50 only.
Response line: < 100 nM

Prompt line: Return reported EC50. Input compound: COc1ccc(C(=O)c2cc3cc(C)n(CC(=O)O)c3s2)c(F)c1 [Compound 176]
Response line: > 10000 nM

Prompt line: Output EC50 of COc1ccc(C(=O)c2cc3cc(C)n(CCCN4CCOCC4)c3s2)cc1 [Compound 107]
Response line: < 100 nM

###

assay_system: human CB1 receptors (Homo sapiens, UniProt P21554)
Construct: (cDNA clone) CNR01L000
Sequence (P21554 whole entry): as the sequence (P21554 whole entry) above
test_name: cAMP assay in HEK-293 cells, hCB1 agonist
Type: cell-based
applied_conditions: inhibition of forskolin-stimulated cAMP, HEK-293 cells; read-out: hCB1 EC50 (cAMP ag)
# EC50 per record follows

>>> print(df.to_string())
                                   molecule  assay_value
0  COc1ccc(C(=O)c2cc3cc(C)n(CCN4CCOCC4)c3s2)c(OC)c1 [Compound 120]  0.1 to 1 µM

Prompt line: In one line, give reported EC50 of the entry COc1ccc(C(=O)c2cc3cc(C)n(CCN4CCSCC4)c3s2)cc1 [Compound 110] .
Response line: 1 to 10 µM

Prompt line: Hello, please tell me recorded EC50 for this one: CCOc1ccc(C(=O)c2cc3cc(C)n(CCN4CCOCC4)c3s2)c(F)c1 [Compound 89]
Response line: 1 to 10 µM

Prompt line: Please supply the value of reported EC50 for the item COc1ccc(C(=O)c2cc3cc(C)n(CC4CCOCC4)c3s2)cc1 [Compound 62]
Response line: 0.1 to 1 µM

###

assay_system: recombinant human cannabinoid receptor CB2 (Homo sapiens, UniProt P34972)
Construct: (cDNA clone) CNR0200000
Sequence (P34972 whole entry): as the sequence (P34972 whole entry) above
test_name: Cannabinoid receptor radioligand binding assay, [3H]-CP 55,940 displacement, hCB2
pIC50: −log10 of the molar value.
metric_name: pIC50

Worked examples follow.
                                        smi   assay_value
0  Cc1cc2cc(C(=O)c3cccc(Cl)c3Cl)sc2n1CC1CCOCC1        > 7.00
1  CCOc1ccc(C(=O)c2cc3cc(C)n(CCN4CCOCC4)c3s2)cn1  5.00 to 6.00
2  COCCn1c(C)cc2cc(C(=O)c3cccc(Cl)c3Cl)sc21  6.00 to 7.00
3  COc1ccc(C(=O)c2cc3cc(C)n(CCC(C)(C)O)c3s2)cc1  5.00 to 6.00
4  COc1cc(F)c(C(=O)c2cc3cc(C)n(CCN4CCOCC4)c3s2)c(F)c1        > 7.00

Prompt line: Fill in: pIC50 on recombinant human cannabinoid receptor CB2 (Homo sapiens, UniProt P34972), entry Cc1cc2cc(C(=O)c3cccc(Cl)c3Cl)sc2n1CCc1ccccc1
Response line: > 7.00

Prompt line: Report pIC50 from recombinant human cannabinoid receptor CB2 (Homo sapiens, UniProt P34972) testing of COCCn1c(C)cc2cc(C(=O)c3ccc(OC)cc3)sc21
Response line: 5.00 to 6.00

Prompt line: # assay system recombinant human cannabinoid receptor CB2 (Homo sapiens, UniProt P34972): give pIC50 of COc1ccc(C(=O)c2cc3cc(C)n(CCN4CCCC4)c3s2)c(Cl)c1
Response line: > 7.00

Prompt line: Return reported pIC50 for target or system recombinant human cannabinoid receptor CB2 (Homo sapiens, UniProt P34972), item COc1ccc(C(=O)c2cc3cc(C)n(CCN4CCOCC4)c3s2)cn1 .
Response line: 6.00 to 7.00

###

Readings of IC50 for the listed compounds
assay_system: recombinant human cannabinoid receptor CB2 (Homo sapiens, UniProt P34972)
Construct: (cDNA clone) CNR0200000
test_name: Cannabinoid receptor radioligand binding assay, [3H]-CP 55,940 displacement, hCB2

These solved cases illustrate the format of a correct answer.
                                   compound       assay_value
0  CCOc1ccc(C(=O)c2cc3cc(C)n(CCN4CCOCC4)c3s2)c(Cl)c1          < 100 nM
1  Cc1cc2cc(C(=O)c3cc(Cl)ccc3Cl)sc2n1CCN1CCOCC1          < 100 nM
2  COc1ccc(C(=O)c2cc3cc(C)n(CCN4CCOCC4)c3s2)c(C)c1          < 100 nM
3  CSc1ccc(C(=O)c2cc3cc(C)n(CCN4CCOCC4)c3s2)cc1    100 to 1000 nM
4  COc1ccc(C(=O)c2cc3cc(C)n(CCN4CCC(OC)C4)c3s2)cn1 (centres unmarked)  1000 to 10000 nM
5  COc1ccc(C(=O)c2cc3cc(C)n(S(=O)(=O)CCN4CCOCC4)c3s2)cc1          < 100 nM
6  Cc1ccc(C(=O)c2cc3cc(C)n(CCCNS(C)(=O)=O)c3s2)c(F)c1    100 to 1000 nM

Now for the compound whose IC50 we want.
Prompt line: Fill in: IC50 on recombinant human cannabinoid receptor CB2 (Homo sapiens, UniProt P34972), entry CCOc1ccc(C(=O)c2cc3cc(C)n(CCCNS(C)(=O)=O)c3s2)c(F)c1
Response line: 100 to 1000 nM

Numbers sourced from patent US20130029970A1.
